Assay: chemical genetic growth profiling, strain panel (AID 1159580);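 note: tested at 20 µM; growth read once vehicle control cultures reached saturation at 30 °C; 1 = growth at the plate median or of vehicle wells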
Conditions: S. cerevisiae deletion strains, growth OD, locus YML070W, strain DAK1, stronger effect = lower value
The campaign covered roughly 5,500 compounds. About 2,000 (36%) were called active. Roughly 18% stayed inconclusive and do not appear here. The list shows a part of the results.
# normalized growth values compiled below
Keep it simple and answer with nothing but the number.

| chemical_structure | measured_quantity | measured_value |
| --- | --- | --- |
| Cc1ccc(NNC(=O)c2cccs2)cc1Cl | normalized growth | 0.918 |
| COc1cc(Br)cc(C=Nc2ccc(Sc3ccccc3)nc2Sc2ccccc2)c1O | normalized growth | 0.888 |
| CC(C)(C)NC(=S)N/N=C\c1ccccc1O | normalized growth | 0.902 |
| O=C1/C(=C/c2ccccn2)CCc2ccccc21 | normalized growth | 0.896 |
| FC(F)(F)c1cccc(NC(=S)NN=C2CCCCCC2)c1 | normalized growth | 0.897 |

Let's switch to this molecule now.
# normalized growth lookup, item Cc1ccc(C)n1-c1ccc(/C=C2/C(=O)Nc3ccccc32)cc1
0.916

* * *

Experiment: chemical genetic growth profiling, strain panel (AID 1159580)
Conditions: S. cerevisiae deletion strains, growth OD, locus YLR370C, strain arc18, stronger effect = lower value
Out of some 5,500 compounds screened, about 2,000 (36%) were called active. Another 18% or so got no clear call; they are omitted. This is one part of the list.
// assign true if normalized growth falls strictly below 1, else false (ties count as false)

Below, 3 compounds whose answers are already recorded.
| chemical_structure | group_label |
| --- | --- |
| COC1=CC(=O)C(O)=C/C1=C\C=C\c1ccccc1 | true |
| COC1=CC(=O)C(C(=O)c2ccccc2)=CC1=O | true |
| COc1c2ccoc2cc2oc(=O)ccc12 | true |

Alright, here's another compound for you.
Dear colleague, could you confirm whether normalized growth of COc1cc2occc2c2oc(=O)ccc12 falls below 1? Thanks.
false

* * *

Experiment: chemical genetic growth profiling, strain panel (AID 1159580)
Settings: S. cerevisiae deletion strains, growth OD, locus YNR052C, strain pop2
Hit rate of the full screen: of about 5,500 compounds, about 2,000 (36%) were called active. Roughly 18% stayed inconclusive and do not appear here. No stated cut-off is given here; in the data, active means normalized growth mostly below about 0.91 (no sharp cut-off); inconclusive means no clear call, values can overlap the other calls; inactive means mostly above about 0.92. This is one part of the list.
Select the correct class. Options are Y (active), N (inactive) and nothing else.

| compound | group_label |
| --- | --- |
| CCC(c1ccc(O)cc1)C(CC)c1ccc(O)cc1 (centres undefined) | N |
| CC(C)c1c(O)ccc2c1CCC1C(C)(C)CCC[C@]21C (some centres undefined) | Y |
| COC(=O)C[C@H]1C(C)(C)C2(Cl)O[C@@]34CC2C(=O)[C@]1(C)C3CC[C@]1(C)C4=CC(=O)O[C@H]1c1ccoc1 (some centres undefined) | N |

Test call for this compound, please: CC/C(=C(/CC)c1ccc(O)cc1)c1ccc(O)cc1
N

Same read-out for CC(C)C1COc2cc3oc(=O)ccc3cc2O1 (centres undefined) ?
Y

* * *

# normalized growth values compiled below
Experiment: chemical genetic growth profiling, strain panel (AID 1159580)
Settings: S. cerevisiae deletion strains, growth OD, locus YPL240C, strain hsp82, stronger effect = lower value
Among all 5,500 compounds or so, about 2,000 (36%) were called active. Inconclusive results (about 18%) are left out. The list shows a part of the results.
Keep it simple and answer with nothing but the number.

Here is how some compounds turned out for normalized growth.
| compound | measured_value |
| --- | --- |
| COc1ccc(-c2oc3cc(O[C@H]4O[C@H](CO)[C@@H](O)[C@H](O)[C@H]4O)c(OC)c(O)c3c(=O)c2OC)cc1O | 1 |
| C[C@@H]([C@H](O)c1ccccc1)N(C)C | 1.02 |
| C[C@@H]1CC[C@@]2(NC1)O[C@H]1C[C@H]3C4CC=C5C[C@@H](O)CC[C@]5(C)C4CC[C@]3(C)C1[C@@H]2C (some centres not stated) | 0.0838 |
| CN[C@@H]1C(O)[C@@H](O[C@@H]2[C@@H](O)[C@H](O[C@H]3OC(CN)=CC[C@H]3N)[C@@H](N)C[C@H]2N)OC[C@]1(C)O (some centres not stated) | 1.01 |
| CN[C@@H]1[C@@H](O)C(OC2[C@@H](N)C[C@@H](N)[C@H](O[C@H]3O[C@H](C(C)O)[C@@H](O)[C@H](O)[C@H]3N)[C@H]2O)OC[C@]1(C)O (some centres not stated) | 0.977 |
| CCOC(=O)c1c(C)cc(O)cc1O | 0.952 |
| CC1CC[C@]2(NC1)O[C@H]1CC3C4CC[C@H]5C[C@@H](O)CC[C@]5(C)C4CC[C@]3(C)[C@H]1[C@@H]2C (some centres not stated) | 0.084 |
| C=C(C)[C@H]1COc2cc3oc(=O)ccc3cc2O1 | 0.966 |

# normalized growth lookup, item CC(CC(O)C1OC1(C)C)[C@@H]1CCC2(C)C3=CCC4C(C)(C)C(=O)CCC4(C)C3CC[C@@]12C (some centres not stated)
1.01

Same read-out for CC(=O)OC(C)C[N+](C)(C)C (configuration not stated) ?
1

Same read-out for CCOC(=O)c1c(C)cc(OC)cc1O ?
0.987

Same read-out for O=c1cc(-c2ccc(O)cc2)oc2cc(O[C@@H]3O[C@H](CO)[C@@H](O)[C@H](O)[C@H]3O)cc(O)c12 ?
1.01

* * *

Test: chemical genetic growth profiling, strain panel (AID 1159580);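 note: tested at 20 µM; growth read once vehicle control cultures reached saturation at 30 °C; 1 = growth at the plate median or of vehicle wells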
Conditions: S. cerevisiae deletion strains, growth OD, locus YCL011C, strain gbp2, stronger effect = lower value
Out of some 5,500 compounds screened, about 2,000 (36%) were called active. Not shown: some 18% with an inconclusive outcome. This is one part of the list.
# normalized growth values compiled below
Keep it simple and answer with nothing but the number.

Here is how some compounds turned out for normalized growth.
| compound | normalized growth |
| --- | --- |
| O=C1C=C2C(=CCOC2O)O1 (centres undefined) | 0.759 |
| CC(C)c1c(O)ccc2c1CCC1C(C)(C)CCC[C@]21C (some centres undefined) | 0.365 |
| CCN[C@@H]1C[C@H](N)[C@@H](O[C@H]2OC(CN)=CC[C@H]2N)[C@H](O)[C@H]1OC1OC[C@](C)(O)[C@H](NC)[C@H]1O (some centres undefined) | 0.977 |
| CC(=O)OCC1=C(C(=O)O)N2C(=O)[C@@H](NC(=O)Cc3cccs3)[C@H]2SC1 | 0.973 |
| CC1CC[C@]2(NC1)O[C@H]1CC3C4CC[C@H]5C[C@@H](O)CC[C@]5(C)C4CC[C@]3(C)[C@H]1[C@@H]2C (some centres undefined) | 0.0814 |
| N#Cc1nn(-c2c(Cl)cc(C(F)(F)F)cc2Cl)c(N)c1S(=O)C(F)(F)F (centres undefined) | 0.951 |
| NC(N)=NC(=O)c1nc(Cl)c(N)nc1N | 0.998 |
| CN[C@@H]1C(O)[C@@H](O[C@@H]2[C@@H](O)[C@H](O[C@H]3OC(CN)=CC[C@H]3N)[C@@H](N)C[C@H]2N)OC[C@]1(C)O (some centres undefined) | 1 |

Let's switch to this compound now.
# normalized growth lookup, item O=C(O[C@@H]1Cc2c(O)cc(O)cc2O[C@@H]1c1cc(O)c(=O)c2c(O)c(O)cc([C@H]3Oc4cc(O)cc(O)c4C[C@H]3O)c2c1)c1cc(O)c(O)c(O)c1
0.62

* * *

Test: chemical genetic growth profiling, strain panel (AID 1159580);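 note: tested at 20 µM; growth read once vehicle control cultures reached saturation at 30 °C; 1 = growth at the plate median or of vehicle wells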
Settings: S. cerevisiae deletion strains, growth OD, locus YOR184W, strain ser1, stronger effect = lower value
Hit rate of the full screen: of about 5,500 compounds, about 2,000 (36%) were called active. Roughly 18% stayed inconclusive and do not appear here. This is one part of the list.
# normalized growth values compiled below
Keep it simple and answer with nothing but the number.

| compound | measured_quantity | measured_value |
| --- | --- | --- |
| CCOC(=O)NC1=C(C2CC2)C(=O)C(NC(=O)OCC)=C(C2CC2)C1=O | normalized growth | 0.974 |
| CCc1cc(C(N)=S)ccn1 | normalized growth | 1.01 |
| OCC(O)C(O)C(O)C(O)C(O)CO (stereo unspecified) | normalized growth | 0.982 |
| COC(=O)C[C@H]1C(C)(C)C2(Cl)O[C@@]34CC2C(=O)[C@]1(C)C3CC[C@]1(C)C4=CC(=O)O[C@H]1c1ccoc1 (stereo partly specified) | normalized growth | 1.01 |
| CCCCC1C(=O)N(c2ccccc2)N(c2ccc(O)cc2)C1=O (stereo unspecified) | normalized growth | 0.983 |

# normalized growth lookup, item CC1=CC(=O)C2=C(C)CC[C@@H]3[C@H](OC(=O)[C@H]3C)[C@@H]12
0.974

* * *

Assay: chemical genetic growth profiling, strain panel (AID 1159580);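 note: tested at 20 µM; growth read once vehicle control cultures reached saturation at 30 °C; 1 = growth at the plate median or of vehicle wells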
Conditions: S. cerevisiae deletion strains, growth OD, locus YPL241C, strain CIN2, stronger effect = lower value
In all, about 5,500 compounds went through this assay and about 2,000 (36%) were called active. Inconclusive results (about 18%) are left out. The list shows a part of the results.
# normalized growth values compiled below
Keep it simple and answer with nothing but the number.

# normalized growth lookup, item Cn1c2c(c3c1CCCC3)CCCC2
1.01

Same read-out for CCC(N)C(O)c1ccc(O)c(O)c1 (stereo not given) ?
1.01

Same read-out for O=c1c(O)c(-c2ccc(O)cc2O)oc2cc(O)cc(O)c12 ?
1

Same read-out for CCC(c1ccc(O)cc1)C(CC)c1ccc(O)cc1 (stereo not given) ?
0.998

Same read-out for CNCC(O)c1ccc(O)cc1 (stereo not given) ?
1

Same read-out for OC1(C(F)(F)F)CC(c2ccccc2)=NN1 (stereo not given) ?
1.02

Same read-out for O=S(=O)(c1cccc2c(Cl)cccc12)N1CCCNCC1 ?
1
